- EXPERIMENT: Oral bioavailability in rat
- Type: ADME, organism-based
- MEASUREMENT CONDITIONS: in vivo
QUANTITY NAME: bioavailability

CCC1(C(=O)N2CCN(C(=O)c3cc(Cc4n[nH]c(=O)c(C)c4C)ccc3F)CC2)CCCN1 (stereo not drawn)    < 3%
Cc1c(Cc2ccc(F)c(C(=O)N3CCN(C(=O)[C@@]4(C)CCN4)CC3)c2)n[nH]c(=O)c1C    < 3%

# input for lookup
Please look up its bioavailability: Cc1c(Cc2ccc(F)c(C(=O)N3CCN(C(=O)C4(C)CCCN4)CC3)c2)n[nH]c(=O)c1C (stereo not drawn)
< 3%

---

- EXPERIMENT: Half life in rat
- Type: ADME, organism-based
- MEASUREMENT CONDITIONS: in vivo
QUANTITY NAME: half-life (h)
Numbers only, in h.

Please look up its half-life: Cc1c(Cc2ccc(F)c(C(=O)N3CCC4(CCCN4)CC3)c2)n[nH]c(=O)c1C
3.7

---

- EXPERIMENT: Volume of distribution at steady state in rat
- Format: ADME, organism-based
- MEASUREMENT CONDITIONS: in vivo, read-out: Vdss
QUANTITY NAME: Vd (L/kg)
Answers are plain numbers, in L/kg.

Please look up its Vd: Cc1c(Cc2ccc(F)c(C(=O)N3CCC4(CCCN4)CC3)c2)n[nH]c(=O)c1C
6.7

---

For each of the molecules below, state its microsomal CLint.
- EXPERIMENT: Intrinsic clearance in rat liver microsomes
- Format: ADME, Microsome

As a guide, the following entries are already answered.
Cc1c(Cc2ccc(F)c(C(=O)N3CCN(C(=O)C4(C)CCCN4)CC3)c2)n[nH]c(=O)c1C (stereo not drawn)    < 1 µL/min/mg
Cc1c(Cc2ccc(F)c(C(=O)N3CCN(C(=O)[C@@]4(C)CCN4)CC3)c2)n[nH]c(=O)c1C    < 1 µL/min/mg

# input for lookup
Please look up its microsomal CLint: Cc1c(Cc2ccc(F)c(C(=O)N3CCC4(CCCN4)CC3)c2)n[nH]c(=O)c1C
< 1 µL/min/mg

---

- STUDY TARGET: Poly [ADP-ribose] polymerase 1 (Homo sapiens)
- Sequence (P09874 whole entry): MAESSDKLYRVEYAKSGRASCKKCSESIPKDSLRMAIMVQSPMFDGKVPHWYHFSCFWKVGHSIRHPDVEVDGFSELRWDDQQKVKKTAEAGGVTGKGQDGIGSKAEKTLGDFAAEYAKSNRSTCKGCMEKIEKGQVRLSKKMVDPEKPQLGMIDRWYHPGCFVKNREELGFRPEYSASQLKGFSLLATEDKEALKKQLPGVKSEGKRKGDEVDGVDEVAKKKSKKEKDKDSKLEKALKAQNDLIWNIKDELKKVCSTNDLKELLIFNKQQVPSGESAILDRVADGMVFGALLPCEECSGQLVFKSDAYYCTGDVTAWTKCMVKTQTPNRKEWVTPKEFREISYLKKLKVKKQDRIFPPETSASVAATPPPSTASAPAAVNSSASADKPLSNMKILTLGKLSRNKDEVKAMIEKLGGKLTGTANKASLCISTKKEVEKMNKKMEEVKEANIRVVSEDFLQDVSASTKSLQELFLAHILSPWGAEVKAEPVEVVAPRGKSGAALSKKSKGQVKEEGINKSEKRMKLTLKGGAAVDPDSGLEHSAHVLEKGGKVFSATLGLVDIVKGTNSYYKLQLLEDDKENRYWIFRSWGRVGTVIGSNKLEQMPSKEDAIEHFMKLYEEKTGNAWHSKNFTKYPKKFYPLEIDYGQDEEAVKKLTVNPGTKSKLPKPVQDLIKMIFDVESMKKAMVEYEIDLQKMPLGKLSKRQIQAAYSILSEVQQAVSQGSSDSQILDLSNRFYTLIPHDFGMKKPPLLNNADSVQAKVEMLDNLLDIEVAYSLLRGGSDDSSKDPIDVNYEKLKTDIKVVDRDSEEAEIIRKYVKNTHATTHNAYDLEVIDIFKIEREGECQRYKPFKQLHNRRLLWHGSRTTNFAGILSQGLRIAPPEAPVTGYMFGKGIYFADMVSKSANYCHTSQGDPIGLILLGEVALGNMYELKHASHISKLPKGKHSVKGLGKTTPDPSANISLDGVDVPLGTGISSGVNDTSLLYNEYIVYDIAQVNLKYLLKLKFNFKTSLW
Labelling field: enter rule met if recorded IC50 is less than 4 nM. Enter rule not met if it equals or exceeds that cut-off.

Cc1c(Cc2ccc(F)c(C(=O)N3CCC4(CCCN4C)CC3)c2)n[nH]c(=O)c1C    rule not met
CNC1(C(=O)N2CCN(C(=O)c3cc(Cc4n[nH]c(=O)c(C)c4C)ccc3F)CC2)CCCC1    rule met
Cc1c(Cc2ccc(F)c(C(=O)N3CCN(C(=O)[C@]4(C)CCCN4)CC3)c2)n[nH]c(=O)c1C    rule met
Cc1c(Cc2ccc(F)c(C(=O)N3CCN(C(=O)C4(C)CCCO4)CC3)c2)n[nH]c(=O)c1C (stereo not given)    rule met
Cc1c(Cc2ccc(F)c(C(=O)N3CCN(C(=O)[C@@H]4CCCN4)CC3)c2)n[nH]c(=O)c1C    rule met
Cc1c(Cc2ccc(F)c(C(=O)N3CCC4(CCNC4)CC3)c2)n[nH]c(=O)c1C    rule not met
Cc1c(Cc2ccc(F)c(C(=O)N3CCN(C(=O)[C@]4(Cc5ccc(F)cc5)CCCN4)CC3)c2)n[nH]c(=O)c1C    rule met
Cc1c(Cc2ccc(F)c(C(=O)N3CCC4(CCN4)CC3)c2)n[nH]c(=O)c1C    rule not met

Field: below-cutoff. Rule: recorded IC50 strictly less than 4 nM. Subject: Cc1c(Cc2ccc(F)c(C(=O)N3CCN(C(=O)[C@@]4(C)CCN4)CC3)c2)n[nH]c(=O)c1C
rule met
